- assayed-system: human CRTH2 receptor (Homo sapiens, UniProt Q9Y5Y4, V204A)
- Sequence (Q9Y5Y4 whole entry V204A): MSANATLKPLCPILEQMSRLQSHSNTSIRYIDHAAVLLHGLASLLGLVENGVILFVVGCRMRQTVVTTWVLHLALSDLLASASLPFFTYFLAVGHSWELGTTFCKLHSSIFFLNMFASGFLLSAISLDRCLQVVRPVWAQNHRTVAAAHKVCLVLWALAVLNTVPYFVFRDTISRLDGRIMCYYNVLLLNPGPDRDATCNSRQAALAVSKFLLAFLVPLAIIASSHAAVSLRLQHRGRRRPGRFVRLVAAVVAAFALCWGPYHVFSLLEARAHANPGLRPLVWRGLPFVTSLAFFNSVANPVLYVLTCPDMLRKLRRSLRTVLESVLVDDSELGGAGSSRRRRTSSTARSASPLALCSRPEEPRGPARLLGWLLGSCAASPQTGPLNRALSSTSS
- procedure-summary: Receptor binding assay: [3H]PGD2 competition on whole COS-7 cells transfected with CRTH2
- condition: 0.1 nM [3H]PGD2, whole cells, 3 h at 4° C.
measured-quantity: IC50

{"columns": ["molecule", "measured-quantity", "measured-value"],
 "data": [
  ["O=C(O)Cc1sc(C(c2ccccc2)c2ccc(F)cc2)nc1-c1ccc(Cl)cc1 (stereo not shown) [Compound A13]", "IC50", "< 500 nM"],
  ["O=C(O)Cc1sc(C(c2ccc(F)cc2)c2ccc(F)cc2)nc1-c1ccc(F)cc1 [Compound A14]", "IC50", "< 500 nM"],
  ["O=C(O)Cc1sc(Cc2ccccc2-c2cccc(OC(F)(F)F)c2)nc1-c1ccc(F)cc1 [Compound A44]", "IC50", "< 500 nM"],
  ["COc1ccc(C(c2ccccc2)c2nc(-c3ccc(Cl)cc3)c(CC(=O)O)s2)cc1 (stereo not shown) [Compound A16]", "IC50", "< 500 nM"],
  ["COc1ccc(C(c2ccc(OC)cc2)c2nc(-c3ccc(F)cc3)c(CC(=O)O)s2)cc1 [Compound A20]", "IC50", "< 500 nM"]
]}

Now consider the entry below.
query: Return the recorded IC50 value; entry: COc1cccc(-c2ccccc2Cc2nc(-c3ccc(F)cc3)c(CC(=O)O)s2)c1 [Compound A37]
result: < 500 nM

====

- assayed-system: human CRTH2-Rluc (Homo sapiens, UniProt Q9Y5Y4, V204A)
- procedure-summary: Functional antagonist BRET assay on HEK293 cells stably expressing CRTH2-Rluc and GFP2-β-arr2
- condition: antagonist incubated 15 minutes before agonist, read-out: Antag. IC50
measured-quantity: IC50

Solved entries:
{"columns": ["compound", "IC50"],
 "data": [
  ["COc1ccc(C(c2ccccn2)c2nc(-c3ccc(Cl)cc3)c(CC(=O)O)s2)cc1 (stereo not drawn) [Compound A31]", "< 500 nM"],
  ["COc1cccc(-c2ccccc2Cc2nc(-c3ccc(F)cc3)c(CC(=O)O)s2)c1 [Compound A37]", "< 500 nM"],
  ["O=C(O)Cc1sc(C(NC(=O)c2ccc(C(F)(F)F)cc2)c2ccccc2)nc1-c1ccc(F)cc1 (stereo not drawn) [Compound A19]", "> 5000 nM"],
  ["O=C(O)Cc1sc(C(c2ccc(F)cc2)c2ccc(F)cc2)nc1-c1ccc(F)c(F)c1 [Compound A25]", "< 500 nM"],
  ["O=C(O)Cc1sc(C(c2ccccc2)c2ccccc2)nc1-c1ccc(C(F)(F)F)cc1 [Compound A24]", "> 5000 nM"],
  ["O=C(O)Cc1sc(C(c2ccccc2)c2ccc(Cl)cc2)nc1-c1ccc(Cl)cc1 (stereo not drawn) [Compound A8]", "< 500 nM"]
]}

query: Under human CRTH2-Rluc (Homo sapiens, UniProt Q9Y5Y4, V204A), report IC50 for O=C(O)Cc1sc(C2(c3ccccc3)CCNCC2)nc1-c1ccc(Cl)cc1 [Compound A46]
result: > 5000 nM

query: Under human CRTH2-Rluc (Homo sapiens, UniProt Q9Y5Y4, V204A), report IC50 for N#Cc1ccc(-c2ccccc2Cc2nc(-c3ccc(F)cc3)c(CC(=O)O)s2)cc1 [Compound A38]
result: < 500 nM

query: Under human CRTH2-Rluc (Homo sapiens, UniProt Q9Y5Y4, V204A), report IC50 for O=C(O)Cc1sc(C(Cc2ccccc2)c2ccc(Cl)cc2)nc1-c1ccc(F)cc1 (stereo not drawn) [Compound A7]
result: < 500 nM

query: Under human CRTH2-Rluc (Homo sapiens, UniProt Q9Y5Y4, V204A), report IC50 for O=C(O)Cc1sc(C(c2ccccc2)c2ccc(O)cc2)nc1-c1ccc(F)cc1 (stereo not drawn) [Compound A22]
result: < 500 nM

====

- assayed-system: human CRTH2 receptor (Homo sapiens, UniProt Q9Y5Y4, V204A)
- procedure-summary: Receptor binding assay: [3H]PGD2 competition on whole COS-7 cells transfected with CRTH2
- condition: 0.1 nM [3H]PGD2, whole cells, 3 h at 4° C.
measured-quantity: IC50

{"columns": ["compound", "measured-value"],
 "data": [
  ["O=C(O)Cc1sc(C(c2ccccc2)c2ccccc2)nc1-c1cccc(F)c1", "< 500 nM"]
]}

query: Return the recorded IC50 value; entry: `O=C(O)Cc1sc(C(c2ccccc2)c2ccccc2)nc1-c1ccc(C(F)(F)F)cc1`
result: 500 to 5000 nM

query: Return the recorded IC50 value; entry: O=C(O)Cc1sc(C(c2ccccc2)c2ccc(O)cc2)nc1-c1ccc(F)cc1 (stereo not drawn)
result: < 500 nM

query: Return the recorded IC50 value; entry: CCC(c1ccccc1)c1nc(-c2ccc(Cl)cc2)c(CC(=O)O)s1 (stereo not drawn)
result: < 500 nM

query: Return the recorded IC50 value; entry: O=C(O)Cc1sc(C(c2ccccc2)c2ccc(Cl)cc2)nc1-c1ccc(F)cc1 (stereo not drawn)
result: < 500 nM

query: Return the recorded IC50 value; entry: `O=C(O)Cc1sc(C(c2ccc(F)cc2)c2ccc(F)cc2)nc1-c1ccc(F)c(F)c1`
result: < 500 nM

query: Return the recorded IC50 value; entry: `O=C(O)Cc1sc(C(c2ccccc2)c2ccccc2)nc1-c1ccccc1`
result: 500 to 5000 nM

query: Return the recorded IC50 value; entry: `O=C(O)Cc1sc(C(c2ccc(F)cc2)c2ccc(F)cc2)nc1-c1cccc(F)c1`
result: < 500 nM

query: Return the recorded IC50 value; entry: O=C(O)Cc1sc(C(Cc2ccccc2)c2ccccc2)nc1-c1ccc(Cl)cc1 (stereo not drawn)
result: < 500 nM

====

Below, each entry is listed with its recorded pIC50.
- assayed-system: human CRTH2 receptor (Homo sapiens, UniProt Q9Y5Y4, V204A)
- procedure-summary: Receptor binding assay: [3H]PGD2 competition on whole COS-7 cells transfected with CRTH2
- condition: 0.1 nM [3H]PGD2, whole cells, 3 h at 4° C.
pIC50: −log10 of the molar value.

Solved entries:
{"columns": ["molecule", "pIC50"],
 "data": [
  ["O=C(O)Cc1sc(C(c2ccccc2)C2CCCCC2)nc1-c1ccc(Cl)cc1 (stereo not shown)", "5.30 to 6.30"],
  ["COc1ccc(C(c2ccccc2)c2nc(-c3ccc(F)cc3)c(CC(=O)O)s2)cc1 (stereo not shown)", "> 6.30"],
  ["O=C(O)Cc1sc(C(c2ccccc2)c2ccc(F)c(F)c2)nc1-c1ccc(F)cc1 (stereo not shown)", "> 6.30"]
]}

Now consider the entry below.
query: Return the recorded pIC50 value; entry: `O=C(O)Cc1sc(Cc2ccccc2-c2ccc3c(c2)OCO3)nc1-c1ccc(F)cc1`
result: > 6.30

====

- assayed-system: human CRTH2-Rluc (Homo sapiens, UniProt Q9Y5Y4, V204A)
- procedure-summary: Functional antagonist BRET assay on HEK293 cells stably expressing CRTH2-Rluc and GFP2-β-arr2
- condition: antagonist incubated 15 minutes before agonist, read-out: Antag. IC50
measured-quantity: IC50

{"columns": ["molecule", "IC50"],
 "data": [
  ["O=C(O)Cc1sc(Cc2ccccc2-c2ccccc2)nc1-c1ccc(F)cc1", "< 500 nM"],
  ["O=C(O)Cc1sc(C(Cc2ccccc2)c2ccc(Cl)cc2)nc1-c1ccc(Cl)cc1 (centres unmarked)", "500 to 5000 nM"],
  ["O=C(O)Cc1sc(C(c2ccc(F)cc2)c2ccc(F)cc2)nc1-c1ccc(F)cc1", "< 500 nM"],
  ["O=C(O)Cc1sc(C(c2ccccc2)c2ccccc2)nc1-c1ccc(Cl)cc1", "< 500 nM"]
]}

query: Return the recorded IC50 value; entry: `O=C(O)Cc1sc(C(c2ccc(F)cc2)c2ccc(F)cc2)nc1-c1cccc(F)c1`
result: < 500 nM

Origin of measurements: patent US20080119456A1
